Test system: rat
Assay: Acute toxicity in the oral rat, LD50
Assay type: in vivo
Readout label: Acute toxicity in the oral rat, LD50

Supply reported Acute toxicity in the oral rat, LD50 belonging to this compound: FC(F)OC(F)(F)OC(F)F
>5000 ppmv/4 hours

Give me measured Acute toxicity in the oral rat, LD50, please, for this compound: FC(F)OC(F)(F)C(F)(F)OC(F)F
>5000 ppmv/4 hours

Give the measured Acute toxicity in the oral rat, LD50 for CC(F)(Cl)Cl [HCFC 141b, 1,1-dichloro-1-fluoroethane]
>5000 ppmv/4 hours

Given the compound FC(Cl)(Cl)Cl , write its reported Acute toxicity in the oral rat, LD50.
>1000 ppmv/4 hours

----------
Test system: rat
Assay: Acute toxicity in the rat by inhalation, LD50
Format: in vivo
Assay conditions: 4 hours
Readout label: Acute toxicity in the rat by inhalation, LD50 (ppmv/4 hours)
Provide only the numeric value, understood in ppmv/4 hours.

Name the recorded Acute toxicity in the rat by inhalation, LD50 of CC(F)(Cl)Cl [HCFC 141b, 1,1-dichloro-1-fluoroethane] , assay system rat.
62000

Jot down Acute toxicity in the rat by inhalation, LD50 (rat) of FC(Cl)(Cl)Cl .
26200
